system: A498 renal; assay: NCI tumour cell line growth inhibition, 48 h
Recorded GI50 by entry

Previously resolved entries follow.
C/C=C(\C)C(=O)O[C@H]1C=CC(=O)O[C@H]1CC[C@H](O)[C@H](C)O; 16400 nM
Cc1cc(C(=O)NC(C)(C)C)cc(C#Cc2ccc3c4c(oc3c2)C(C)(C)c2cc(NS(C)(=O)=O)ccc2C4=O)n1; 2100 nM
Cc1ccc(NCCN2CCCCC2)c2c(=O)c3ccccc3sc12; 1910 nM
O=C(O[C@H]1CN[C@H](C#Cc2cc3ncnc(Nc4ccc5c(cnn5Cc5ccccc5)c4)c3s2)C1)N1CCOCC1; 998 nM
COc1ccc(C(=O)n2nc(/C=C/c3ccc(O)c(OC)c3)cc2/C=C/c2ccc(O)c(OC)c2)cc1; 2250 nM

Request: Enter reported GI50 observed with A498 renal for Clc1ccc(N2CCN(CCCN3CCN(c4cccc(Cl)c4)CC3)CC2)cc1
Result: 4610 nM

---

system: NCI-H226 lung; test: NCI tumour cell line growth inhibition, 48 h
experimentalEndpoint: GI50

O=C1c2ccccc2C(=O)c2c1ccc(C(Br)Br)c2Cl; 4.49 µM
Cc1ccc(-c2cc3c(NC(=O)C4CC4)ncnc3o2)cc1; > 25 µM
NCCCCCCn1c2c(c3ccccc3c1=O)C(=O)c1ccccc1-2; 1.08 µM
Oc1ccccc1N=Cc1c(O)ccc2ccccc12; 11.5 µM
O=C(Nc1ccc(Cl)cc1)Nc1ccc(Oc2nncc3ccccc23)cc1; 0.623 µM

Request: Any idea what GI50 was measured for O=C1OC(c2cccc(C(F)(F)F)c2)c2ccc3ccccc3c21 (stereo unspecified) ?
Result: > 100 µM

Request: Would you mind doing CCOc1ccc2nc(S/C(=C/C=C(C#N)C#N)c3ccc(Cl)cc3)sc2c1 as well?
Result: 3.63 µM

Request: Would you mind doing Cc1cc(C)c(C#N)c(SCC(=O)c2sc3c(C#N)c(C)cc(C)[n+]3c2[O-])n1 as well?
Result: 1.33 µM

Request: Would you mind doing Cc1ccc(S(=O)(=O)NC2=NCCN2C(=S)SN2CCn3c2nsc3=S)cc1 as well?
Result: 19.9 µM

Request: Would you mind doing COc1ccc2c(c1)OCC1c3cc(O)ccc3OC21 (stereo unspecified) as well?
Result: 18.6 µM

Request: Would you mind doing O=C(O[C@H]1CN[C@H](C#Cc2cc3ncnc(Nc4ccc5c(cnn5Cc5ccccc5)c4)c3s2)C1)N1CCOCC1 as well?
Result: 5.37 µM

Request: Would you mind doing CN1C(=O)/C(=C/c2c(Cl)[nH]c3ccccc23)c2ccccc21 as well?
Result: 48.3 µM

---

system: UO-31 renal; assay: NCI tumour cell line growth inhibition, 48 h
experimentalEndpoint: GI50

Previously resolved entries follow.
NCCCCCCn1c2c(c3ccccc3c1=O)C(=O)c1ccccc1-2; 442 nM
CSCCC(NC(=O)CNC(=O)C(CC(=O)O)NC(=O)C(NC(=O)C(NC(=O)C(NC(=O)CNC(=O)C(CCC(N)=O)NC(=O)C(CCSC)NC(=O)C(CC(=O)O)NC(=O)C(C)NC(=O)C(C)NC(=O)C(NC(=O)C(CO)NC(=O)C(N)CC(C)C)C(C)O)C(C)C)C(C)C)C(C)O)C(=O)NC(C)C(=O)NC(CO)C(=O)NCC(=O)NC(CC(C)C)C(=O)NC(CC(=O)O)C(=O)NC(CCCCN)C(=O)NC(CC(=O)O)C(=O)NC(Cc1ccc(O)cc1)C(=O)NC(CC(C)C)C(=O)NC(CCCCN)C(=O)N1CCCC1C(=O)NC(CC(=O)O)C(=O)NC(CC(=O)O)C(=O)O (stereo not drawn); > 82500 nM

Let us move to another entry and its GI50.
Request: Any idea what GI50 was measured for Cc1ccc(S(=O)(=O)NC2=NCCN2C(=S)SN2CCn3c2nsc3=S)cc1 ?
Result: 2930 nM
